Values from PubChem BioAssay

Reported z-score is given for each of the following molecules.
- assayName: basal HepG2 mitochondrial membrane potential changes, profiling panel, cell-based, JC-1 fluorescence, 24 h, 100 nL compound (AID 1167); further: test concentration not given here
- conditions: higher = more signal
Reply briefly: the number, and no unit.

// known answers, use as guide
>  <chemicalString>
O=C1[C@H]2[C@H]3[C@H](O)[C@H](O)CC(=NOC[C@@H](O)COCc4ccco4)[C@H]3CC[C@H]2C(=O)N1Cc1ccccc1

>  <z-score>
0.176

$$$$
>  <chemicalString>
COC(=O)CC=C[C@@H](C)[C@@H](C=NO[C@H](C)c1cn([C@H](CO)Cc2ccccc2)nn1)OC

>  <z-score>
-0.741

$$$$

Kindly consider the entry below.
Look at this molecule and give its reported z-score. COC(=O)[C@@H]1CC[C@H](C)[C@@H](c2ccc(C)cc2)N1C(=O)c1ccc(C=NO[C@@H]2O[C@H](COC(C)=O)[C@@H](OC(C)=O)[C@H](OC(C)=O)[C@H]2OC(C)=O)cc1
2.74
